# assaySetup: in methanol, 293.05 K
propertyMeasured: solubility (mole fraction)
Answers are plain numbers.

(Q) Tell me its solubility (mole fraction) given ON(Cc1ccccc1)Cc1ccccc1 as the entry.
(A) 0.00333

---

# assaySetup: in 1,2-dichlorobenzene, 283.65 K
propertyMeasured: solubility (mole fraction)
One number for each entry.

(Q) Tell me its solubility (mole fraction) given ON(Cc1ccccc1)Cc1ccccc1 as the entry.
(A) 0.00624

---

# assaySetup: in ethyl acetate, 323.15 K
propertyMeasured: solubility (mole fraction)
One number for each entry.

(Q) Tell me its solubility (mole fraction) given ON(Cc1ccccc1)Cc1ccccc1 as the entry.
(A) 0.0679

---

# assaySetup: in acetone, 293.05 K
propertyMeasured: solubility (mole fraction)
Numbers only.

(Q) Tell me its solubility (mole fraction) given ON(Cc1ccccc1)Cc1ccccc1 as the entry.
(A) 0.0186

---

# assaySetup: in n-butanol, 308.05 K
propertyMeasured: solubility (mole fraction)

(Q) Tell me its solubility (mole fraction) given ON(Cc1ccccc1)Cc1ccccc1 as the entry.
(A) 0.00843

---

# assaySetup: in isobutanol, 313.25 K
propertyMeasured: solubility (mole fraction)
Numbers only.

(Q) Tell me its solubility (mole fraction) given ON(Cc1ccccc1)Cc1ccccc1 as the entry.
(A) 0.00753

---

# assaySetup: in ethanol, 279.15 K
propertyMeasured: solubility (mole fraction)

(Q) Tell me its solubility (mole fraction) given ON(Cc1ccccc1)Cc1ccccc1 as the entry.
(A) 0.00172

---

# assaySetup: in n-butanol, 313.15 K
propertyMeasured: solubility (mole fraction)
Answers are plain numbers.

(Q) Tell me its solubility (mole fraction) given ON(Cc1ccccc1)Cc1ccccc1 as the entry.
(A) 0.0108

---

# assaySetup: in n-butanol, 297.65 K
propertyMeasured: solubility (mole fraction)
One number for each entry.

(Q) Tell me its solubility (mole fraction) given ON(Cc1ccccc1)Cc1ccccc1 as the entry.
(A) 0.00509

---

# assaySetup: in isobutanol, 293.25 K
propertyMeasured: solubility (mole fraction)
Numbers only.

(Q) Tell me its solubility (mole fraction) given ON(Cc1ccccc1)Cc1ccccc1 as the entry.
(A) 0.00258

---

# assaySetup: in acetone, 279.15 K
propertyMeasured: solubility (mole fraction)
One number for each entry.

(Q) Tell me its solubility (mole fraction) given ON(Cc1ccccc1)Cc1ccccc1 as the entry.
(A) 0.0102

---

# assaySetup: in ethyl acetate, 289.05 K
propertyMeasured: solubility (mole fraction)

(Q) Tell me its solubility (mole fraction) given ON(Cc1ccccc1)Cc1ccccc1 as the entry.
(A) 0.0178

---

# assaySetup: in n-propanol, 302.85 K
propertyMeasured: solubility (mole fraction)
Give bare numbers.

(Q) Tell me its solubility (mole fraction) given ON(Cc1ccccc1)Cc1ccccc1 as the entry.
(A) 0.00606

---

# assaySetup: in 1,2,4-trichlorobenzene, 318.15 K
propertyMeasured: solubility (mole fraction)
One number for each entry.

(Q) Tell me its solubility (mole fraction) given ON(Cc1ccccc1)Cc1ccccc1 as the entry.
(A) 0.0367

---

# assaySetup: in THF, 313.15 K
propertyMeasured: solubility (mole fraction)
Give bare numbers.

(Q) Tell me its solubility (mole fraction) given ON(Cc1ccccc1)Cc1ccccc1 as the entry.
(A) 0.137

---

# assaySetup: in n-butanol, 279.15 K
propertyMeasured: solubility (mole fraction)
One number for each entry.

(Q) Tell me its solubility (mole fraction) given ON(Cc1ccccc1)Cc1ccccc1 as the entry.
(A) 0.00198
